# System: Plasmodium vivax
# EXPERIMENTAL_PROTOCOL: Antimicrobial activity against Plasmodium vivax at the ring stage measured after 30 hrs by microscopy
# Format: functional, organism-based
Rule for this label: Fulfilled means IC50 is less than 8 nM; Not fulfilled means IC50 is at least 8 nM.

Query: Given OC(c1cc(C(F)(F)F)nc2c(C(F)(F)F)cccc12)C1CCCCN1 (stereo unspecified) [MEFLOQUINE] , is recorded IC50 strictly lower than 8 nM?
Result: Fulfilled

Query: Given CCCCN(CCCC)CC(O)c1cc(Cl)cc2c1-c1ccc(Cl)cc1/C2=C/c1ccc(Cl)cc1 (stereo unspecified) [LUMEFANTRINE] , is recorded IC50 strictly lower than 8 nM?
Result: Not fulfilled

Query: Given CCN(CC)CCCC(C)Nc1ccnc2cc(Cl)ccc12 (stereo unspecified) [CHLOROQUINE] , is recorded IC50 strictly lower than 8 nM?
Result: Not fulfilled

Query: Given C[C@H]1[C@H](OC(=O)CCC(=O)O)O[C@@H]2O[C@@]3(C)CC[C@H]4[C@H](C)CC[C@@H]1[C@@]24OO3 [ARTESUNATE] , is recorded IC50 strictly lower than 8 nM?
Result: Fulfilled

Query: Given Clc1ccc2c(N3CCN(CCCN4CCN(c5ccnc6cc(Cl)ccc56)CC4)CC3)ccnc2c1 [PIPERAQUINE] , is recorded IC50 strictly lower than 8 nM?
Result: Not fulfilled

* * *

# Test system: Plasmodium vivax
# EXPERIMENTAL_PROTOCOL: Antimicrobial activity against Plasmodium vivax at the ring stage by microscopy
# Type: functional, organism-based
READOUT: IC50 (nM)
The reply should contain only the number, in nM.

For record C[C@H]1[C@H](OC(=O)CCC(=O)O)O[C@@H]2O[C@@]3(C)CC[C@H]4[C@H](C)CC[C@@H]1[C@@]24OO3 [ARTESUNATE] the listed IC50 is 0.86

For record CCN(CC)CCCC(C)Nc1ccnc2cc(Cl)ccc12 (centres undefined) the listed IC50 is 55.2

For record CCN(CC)Cc1cc(Nc2ccnc3cc(Cl)ccc23)ccc1O the listed IC50 is 10

For record OC(c1cc(C(F)(F)F)nc2c(C(F)(F)F)cccc12)C1CCCCN1 (centres undefined) the listed IC50 is 6.39

* * *

Could you please report measured pIC50 for the items listed next?
# Test system: Plasmodium vivax
# EXPERIMENTAL_PROTOCOL: Antimicrobial activity against Plasmodium vivax trophozoites by microscopy
# Assay type: functional, organism-based
Expect pIC50 as a plain number equal to -log10 of the molar concentration.

For record C[C@H]1[C@H](OC(=O)CCC(=O)O)O[C@@H]2O[C@@]3(C)CC[C@H]4[C@H](C)CC[C@@H]1[C@@]24OO3 [ARTESUNATE] the listed pIC50 is 8.79

For record CCN(CC)Cc1cc(Nc2ccnc3cc(Cl)ccc23)ccc1O the listed pIC50 is 7.66

For record CCN(CC)CCCC(C)Nc1ccnc2cc(Cl)ccc12 (centres undefined) the listed pIC50 is 6.32

For record OC(c1cc(C(F)(F)F)nc2c(C(F)(F)F)cccc12)C1CCCCN1 (centres undefined) the listed pIC50 is 7.77
